TARGET_UNDER_TEST: T1, DegS I179A (E. coli, UniProt P0AEE3 27-355, I179A)
T1 sequence (looked up): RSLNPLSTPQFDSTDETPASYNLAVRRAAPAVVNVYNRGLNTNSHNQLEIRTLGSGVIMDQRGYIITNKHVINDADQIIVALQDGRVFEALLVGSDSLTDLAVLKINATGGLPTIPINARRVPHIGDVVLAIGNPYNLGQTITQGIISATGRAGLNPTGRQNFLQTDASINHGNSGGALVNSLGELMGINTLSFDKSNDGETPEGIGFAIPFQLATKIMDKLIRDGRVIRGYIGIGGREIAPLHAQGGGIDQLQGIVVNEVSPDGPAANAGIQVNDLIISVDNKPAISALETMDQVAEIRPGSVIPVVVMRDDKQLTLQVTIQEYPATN
ASSAY_NOTES: fluorescence polarisation
Where no end group is shown, it is not given here. fluorescein = fluorescein, a fluorescent label on the peptide N-terminus
MEASURED_PARAMETER: Kd

Enquiry: # Kd lookup, item fluorescein-DNRDGNVYYF [fluorescent OMP peptide fluorescein-DNRDGNVYYF]
Return: 2.3 µM
